Exercise: for every item that follows, state its recorded cell count.
# ASSAY: inhibitors of TNFa-induced NFkB p65 translocation, primary screen, imaging, HUVEC, MLSMR starter and 10KST1 sets (AID 438);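 note: compound added about 3h40 before a 20 min TNFalpha stimulation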
# EXPERIMENTAL CONDITIONS: HUVEC TNFa-induced p65 nuclear translocation; measured here: nuclei count (cytotoxicity indicator), at 2.08 µM

Study these solved cases before continuing.
CCOC(=O)c1[nH]c2ccccc2c1NC(=O)C(CC)CC : 689
Cc1cccc2cc(CN(CCN3CCCC3)C(=O)NC3CCCCC3)c(=O)[nH]c12 : 641
COC(=O)c1cc(S(=O)(=O)N2CCC(C)CC2)ccc1F : 552
COC(=O)c1[nH]c(C)c(/C(O)=C2\C(=O)C(=O)N(CCN3CCOCC3)C2c2cccs2)c1C (stereo unspecified) : 450
COc1ccc(-c2nnc(SCC(=O)NC(=O)NCc3ccco3)o2)cc1 : 417
O=C1N2c3ccccc3CCc3cccc(c32)C1(O)C(F)(F)F (stereo unspecified) : 747
CCOC(=O)C1=C(c2ccccc2)N2CCN=C2S1 : 507
COc1ccc(Br)cc1S(=O)(=O)N1CC(C)OC(C)C1 (stereo unspecified) : 359
COc1cc(S(=O)(=O)N2CCN(C)CC2)c(OC)cc1Br : 616
CC(C)COC(=O)CCNc1n[nH]c(=O)[nH]c1=O : 622

Could you now consider this next molecule?
Ask: Please report the measured cell count for "C/C(NC(=O)c1cccs1)=C1\C(=O)C[C@@H]2[C@H]1C2(C)C"
Result: 562

----------
Exercise: for every item that follows, state its recorded nuclei count.
# ASSAY: inhibitors of E-selectin induction by TNFa, primary screen, imaging, HUVEC, immunofluorescence, MLSMR starter and 10KST1 sets (AID 487);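 note: 100% = median nuclei count of all wells on the same plate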
# EXPERIMENTAL CONDITIONS: HUVEC TNFalpha-induced E-selectin immunofluorescence imaging, at 2 µM; measured here: cell number, toxicity
One number for each entry, in %.

Study these solved cases before continuing.
Cc1ccn2cc(CCNC(=O)CC(C)(C)C)nc2c1 : 104
CC(C)N(C(=O)CSc1nnc(-c2cc3ccccc3cc2O)n1Cc1ccco1)C(C)C : 102
O=C(CSc1nnnn1-c1ccc(Cl)cc1)NC(=O)Nc1ccc2c(c1)OCCO2 : 120
COc1ccc(N2CCN(CCNC(=O)CCS(=O)(=O)c3cccc4nsnc34)CC2)cc1 : 109

Could you now consider this next molecule?
Ask: Please report the measured nuclei count for "COCCCN(Cc1ccccn1)S(=O)(=O)Cc1ccccc1"
Result: 102

----------
# ASSAY: inhibitors of poly I:C-induced TLR3 signaling, primary screen, cell-based, poly I:C stimulus, luciferase, 10K MLSCN set (AID 602277)
# EXPERIMENTAL CONDITIONS: HEK293-TLR3 RL24 IRF3 luciferase reporter, at 10 µM, stronger effect = higher value
Please mark satisfied if the recorded inhibition is equal to or greater than 20%, and not satisfied if it falls below.

CCOC(=O)Cc1csc(NC(=O)CSc2nnc(C)n2C)n1 : not satisfied
COc1ccc(C2CC(c3ccc(Cl)cc3Cl)n3nc(N)nc3N2)cc1 (stereo not given) : satisfied
CCOc1ccc(NC(=O)c2ccc3c(c2)N(Cc2ccc(F)cc2)C(=O)CS3=O)cc1 (stereo not given) : not satisfied
CCn1c(SCC(=O)c2ccc(F)cc2)nnc1-c1ccoc1C : not satisfied
CCOc1cc(C2C3=C(CCCC3=O)N(C)C3=C2C(=O)CCC3)cc(Cl)c1O : satisfied
Cc1ccc(/C=c2\s/c(=C(/C#N)C(=O)N3CCCC3)n(Cc3ccco3)c2=O)s1 : not satisfied

Ask: hey, is inhibition for this one >= 20%? CCOc1ccc(C2CC(=O)NC3=C2C(=O)CCC3)cc1Cl (stereo not given)
Result: not satisfied

Ask: hey, is inhibition for this one >= 20%? "CCOC(=O)c1ccc(S(=O)(=O)NC2CCCCCCC2)n1C"
Result: satisfied

Ask: hey, is inhibition for this one >= 20%? COc1cccc(-c2noc(C3CCCN(C(=O)Cc4ccccc4)C3)n2)c1 (stereo not given)
Result: not satisfied

Ask: hey, is inhibition for this one >= 20%? "CCOC(=O)N1CCN(c2c(N3CCN(c4ccccc4OC)CC3)c(=O)c2=O)CC1"
Result: not satisfied
